- system: huPD-L1 (Homo sapiens, UniProt Q9NZQ7)
- Sequence (Q9NZQ7 19-290): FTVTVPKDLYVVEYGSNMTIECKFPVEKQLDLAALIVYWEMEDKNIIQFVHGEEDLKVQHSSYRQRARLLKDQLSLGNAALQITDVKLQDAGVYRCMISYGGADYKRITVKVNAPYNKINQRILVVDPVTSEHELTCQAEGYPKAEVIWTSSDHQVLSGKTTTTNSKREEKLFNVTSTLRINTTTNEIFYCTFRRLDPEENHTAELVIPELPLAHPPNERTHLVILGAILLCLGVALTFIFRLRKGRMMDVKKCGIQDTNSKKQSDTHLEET
- experiment.summary: Flow binding to CHO cells stably expressing PD-L1
- Parameters: huCTLA4 and huPD-L1, full-length mammalian surface expression constructs were generated; expressed in transfected cells; host or cells: CHO cells, lentiviral transduction, sorted to >98% purity
- run.parameters: Table E11; CHO cells stably expressing PD-L1; 33.3 nM
- Description: Binding of selected immunomodulatory fusion proteins to cognate binding partners was assessed. […] Cells were sorted in a Bio-Rad S3 Cell Sorter (Bio-Rad Corp., USA) to >98% purity. […] For staining and analysis by flow cytometry, 100,000 cells of appropriate transfected cells were plated in 96-well round bottom plates. […] Cells were then washed twice with 150 μL/well stain buffer, fixed in 2% formaldehyde/PBS, and analyzed on Intellicyt flow cytometer (Intellicyt Corp., USA). […]
result.type: PD-L1 MFI at 33.3 nM
Would you mind answering with just the numeric figure?

H18Y/E35D/V68M/T79M/L85M (protein, UniProt P33681 35-288, looked up, variant H18Y E35D V68M T79M L85M) T-lymphocyte activation …: VIHVTKEVKEVATLSCGYNVSVEELAQTRIYWQKDKKMVLTMMSGDMNIWPEYKNRTIFDITNNLSIMILALRPSDEGMYECVVMKYEKDAFKREHLAEVTLSVKADFPTPSISDFEIPTSNIRRIICSTSGGFPEPHLSWLENGEELNAINTTVSQDPETELYAVSSKLDFNMTTNHSFMCLIKYGHLRVNQTFNWNTTKQEHFPDNLLPSWAITLISVNGIFVICCLTYCFAPRCRERRRNERLRRESVRPV = 14907
T13R/Q33R/E35D/M47L/V68M (protein, CD80 v381 ECD) VIHVTKEVKEVARLSCGHNVSVEELAQTRIYWRKDKKMVLTMMSGDLNIWPEYKNRTIFDITNNLSIMILALRPSDEGTYECVVLKYEKDAFKREHLAEVTLSVKADFPTPSISDFETPTSNIRRIICSTSGGFPEPHLSWLENGEELNAINTTVSQDPETELYAVSSKLDFNMTTNHSFMCLIKYGHLRVNQTFNWNTTKQEHFPDN = 14680
E24D/E35D/M47L/V68M/E95V/L97Q (protein, UniProt P33681 35-288, looked up, variant E24D E35D M47L V68M E95V L97Q) T-lymphocyte activation …: VIHVTKEVKEVATLSCGHNVSVEDLAQTRIYWQKDKKMVLTMMSGDLNIWPEYKNRTIFDITNNLSIMILALRPSDEGTYECVVLKYEKDAFKRVHQAEVTLSVKADFPTPSISDFEIPTSNIRRIICSTSGGFPEPHLSWLENGEELNAINTTVSQDPETELYAVSSKLDFNMTTNHSFMCLIKYGHLRVNQTFNWNTTKQEHFPDNLLPSWAITLISVNGIFVICCLTYCFAPRCRERRRNERLRRESVRPV = 18649
T13R/Q33R/E35D/M38I/M47L/V68M/E95V/L97Q (protein, UniProt P33681 35-288, looked up, variant T13R Q33R E35D M38I M47L V68M E95V L97Q) T-lymphocyte activation …: VIHVTKEVKEVARLSCGHNVSVEELAQTRIYWRKDKKIVLTMMSGDLNIWPEYKNRTIFDITNNLSIMILALRPSDEGTYECVVLKYEKDAFKRVHQAEVTLSVKADFPTPSISDFEIPTSNIRRIICSTSGGFPEPHLSWLENGEELNAINTTVSQDPETELYAVSSKLDFNMTTNHSFMCLIKYGHLRVNQTFNWNTTKQEHFPDNLLPSWAITLISVNGIFVICCLTYCFAPRCRERRRNERLRRESVRPV = 19157

Task: Respond only with PD-L1 MFI at 33.3 nM recorded for E35D/M47V/V68M/L85M/Y87D (protein, UniProt P33681 35-288, looked up, variant E35D M47V V68M L85M Y87D) T-lymphocyte activation …: VIHVTKEVKEVATLSCGHNVSVEELAQTRIYWQKDKKMVLTMMSGDVNIWPEYKNRTIFDITNNLSIMILALRPSDEGTYECVVMKDEKDAFKREHLAEVTLSVKADFPTPSISDFEIPTSNIRRIICSTSGGFPEPHLSWLENGEELNAINTTVSQDPETELYAVSSKLDFNMTTNHSFMCLIKYGHLRVNQTFNWNTTKQEHFPDNLLPSWAITLISVNGIFVICCLTYCFAPRCRERRRNERLRRESVRPV
Output: 1721

The measurements presented in this section are drawn from patent US20220177587A1.
